- experiment description: gradient 5% acetonitrile 3 min, to 50% in 2 min, to 85% in 15 min, held 3 min, 100 µL/min
- assay conditions: column: Zorbax Extend-C18 2.1 x 50 mm; eluents: water / acetonitrile, 0.1% formic acid
reported endpoint: RP-LC retention time

1) CCc1noc(NC(C)=O)c1-c1ccc(OC)c(S(=O)(=O)Nc2ccc(OC)c(OC)c2)c1 ... 688 s
2) CN(CCCNC(=O)C1CCCN(c2ncnc3c2nc2n3CCCCC2)C1)Cc1ccccc1 (centres undefined) ... 616 s
3) CNC(=O)[C@@H]1C[C@H](Oc2ccccc2)CN1S(=O)(=O)N(C)C ... 702 s
4) Cc1ccc(CNC(=O)c2c(C)oc3ccn(C)c(=O)c23)cc1 ... 919 s
5) CCOC(=O)c1[nH]c(C)c(CCC(=O)N2CCC(C(=O)NCc3ccc(SC)cc3)CC2)c1C ... 815 s
6) COc1cccc(-c2nn3c(CSc4ccccc4)nnc3s2)c1 ... 993 s
7) O=C(C1CC(=O)N(c2ccccc2)C1)N1CCC2(CC1)OCCS2 (centres undefined) ... 682 s
8) COc1ccc2cccc(NC(=O)c3c[nH]c4ccccc34)c2n1 ... 986 s
9) O=C(NC1CCCCCCC1)C1CCN(S(=O)(=O)c2cc(-c3noc(C4CC4)n3)cs2)CC1 ... 1100 s

* * *

RP-LC retention time by entry:
- experiment description: gradient 5% acetonitrile 3 min, to 50% in 2 min, to 85% in 15 min, held 3 min, 100 µL/min
- assay conditions: column: Zorbax Extend-C18 2.1 x 50 mm; eluents: water / acetonitrile, 0.1% formic acid
reported endpoint: RP-LC retention time

1) CC(C)c1noc(-c2ccn3c(CC(=O)N4CCCCC4)nnc3c2)n1 ... 721 s
2) COC(=O)c1c(C)[nH]c(C(=O)N2CCC(CC(=O)N3CCN(C4CCCCC4)CC3)CC2)c1C ... 594 s
3) O=C(Nc1cccc(F)c1)c1cc(C2CC2)on1 ... 956 s
4) Cc1nc(-c2ccc(N3CCN(C(=O)c4ccoc4)CC3)nc2)sc1C ... 738 s
5) CCOC(=O)c1[nH]c(C)c(CCC(=O)N2CCC(C(=O)NCc3ccc(OC)c(OC)c3)CC2)c1C ... 700 s
6) COc1cc(OC)cc(N2C(=O)C3N=NN(Cc4nc(-c5ccccc5Cl)no4)C3C2=O)c1 (centres undefined) ... 967 s
7) CN1CCN(c2ncc3c(n2)CC(c2cc(F)cc(F)c2)CC3=O)CC1 (centres undefined) ... 660 s
8) O=C(c1nc(-c2ccnc(N3CCCCC3)c2)no1)N1CCC2(CC1)OCCO2 ... 673 s
9) COC(=O)c1sc2ccccc2c1NC(=O)c1cccc(OC)c1OC ... 1020 s

* * *

- experiment description: gradient 5% acetonitrile 3 min, to 50% in 2 min, to 85% in 15 min, held 3 min, 100 µL/min
- assay conditions: column: Zorbax Extend-C18 2.1 x 50 mm; eluents: water / acetonitrile, 0.1% formic acid
Examples of compounds with documented RP-LC retention time follow.
reported endpoint: RP-LC retention time (s)

1. O=C(Cc1c[nH]c2ncccc12)NCc1cccc(Br)c1 ... 647
2. CCCNC(=O)C1CCN(c2nc3ccc(-c4cncnc4)nc3s2)CC1 ... 719
3. CC(C)(N)C(=O)N[C@H](COCc1ccccc1)C(=O)N1CCC2(CC1)CN(S(C)(=O)=O)c1ccccc12 ... 777
4. O=C(CN1C(=O)C2CCCCN2c2ccc(C(=O)N3CCCC3)cc21)NCc1ccccn1 (centres undefined) ... 626
5. CCOc1ccccc1NC(=O)Cn1c(C)nc2c(sc3nc(-c4ccccc4)ccc32)c1=O ... 1160
6. COc1ccc(Br)cc1-c1nnc2n(C)c3c(=O)n(C)c(=O)n(C)c3n12 ... 641
7. O=C1CC(c2ccccc2)N1 (centres undefined) ... 646
8. O=C(N/N=C/c1coc2ccccc2c1=O)c1cccnc1 ... 663
9. Cc1nc(N2CCN(C(=O)CCCc3ccccc3)CC2)cc(-n2cccn2)n1 ... 928

Source: the METLIN SMRT retention time set (Domingo-Almenara et al. 2019)
